- TEST DETAILS: LD50 (acute toxicity), p.o.
- ASSAY CONDITIONS: in vivo, po, species not given
QUANTITY KIND: LD50

- SMILES REPRESENTATION: "CC1(C)NC(=O)N(c2ccc(F)cc2)C1=O"
  LD50: "600 to 1200 mg/kg"

Please give measured LD50 of the following entry: CC1(C)NC(=O)N(c2ccc(Cl)cc2)C1=O
1250 to 2500 mg/kg

Please give measured LD50 of the following entry: CC1(C)NC(=O)N(c2ccc(Cl)c(Cl)c2)C1=O
2500 to 5000 mg/kg

Please give measured LD50 of the following entry: CC1(C)NC(=O)N(c2cccc(C(F)(F)F)c2)C1=O
625 to 1250 mg/kg

Please give measured LD50 of the following entry: COC(=O)C(C)(C)NC(=O)Nc1ccc(Cl)c(C(F)(F)F)c1
> 5000 mg/kg

Where these numbers come from: patent US4234736A
